experiment-summary: Cytotoxicity against human HuH7 cells assessed as survival rate at 1 uM after 24 hrs by MTT assay relative to control
Assay type: cell-based, Huh-7
assay-setup: read-out: Survival
viability at 24 h, 1 µM for assorted compounds
Output spec: scalar in %, unitless text.

{"compound": "Cc1cccc2c3c(ccc12)C1=C(C(=O)C3=O)C(C)CO1 (configuration not stated)", "measured": 94.7}

Asked: Supply viability at 24 h, 1 µM value. Item: Cc1coc2c1C(=O)C(=O)c1c-2ccc2c1C=CCC2(C)C
Given back: 93

###

Indoleamine 2,3-dioxygenase 1 (Homo sapiens, UniProt P14902): recorded pIC50 for assorted compounds
Sequence (P14902 whole entry): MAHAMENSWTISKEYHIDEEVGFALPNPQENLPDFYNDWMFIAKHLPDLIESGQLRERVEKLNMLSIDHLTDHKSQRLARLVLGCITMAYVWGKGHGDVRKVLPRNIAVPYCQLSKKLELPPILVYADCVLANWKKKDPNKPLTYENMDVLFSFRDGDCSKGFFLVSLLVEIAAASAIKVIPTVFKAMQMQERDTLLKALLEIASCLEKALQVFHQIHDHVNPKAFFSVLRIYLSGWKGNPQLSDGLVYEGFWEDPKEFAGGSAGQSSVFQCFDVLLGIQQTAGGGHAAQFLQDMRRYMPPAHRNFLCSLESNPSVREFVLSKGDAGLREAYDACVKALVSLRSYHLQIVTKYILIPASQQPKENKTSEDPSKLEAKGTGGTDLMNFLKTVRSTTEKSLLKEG
Note on units: pIC50 is unitless, being -log10 of a concentration expressed in mol/L.

{"compound": "Cc1c(-c2c(C)c(O)c3ccccc3c2O)oc2c1C(=O)C(=O)c1c-2ccc2c1CCCC2(C)C", "measured": 5.39}
{"compound": "Cc1cccc2c3c(ccc12)C1=C(C(=O)C3=O)C(C)CO1 (stereo not drawn)", "measured": 5.89}

Asked: Look up and state reported pIC50 for Cc1coc2c1C(=O)C(=O)c1c-2ccc2c1C=CCC2(C)C
Given back: 5.33

Values from ChEMBL document CHEMBL4257491
